Measured IC50 of individual entries
target: SUMO-activating enzyme (Homo sapiens, UniProt Q9UBT2); experiment: SUMOylation inhibitor hit validation, confirmation, SUMOylation inhibitor project, biochemical, AlphaScreen (AID 2018); type: functional
Sequence (Q9UBE0 whole entry): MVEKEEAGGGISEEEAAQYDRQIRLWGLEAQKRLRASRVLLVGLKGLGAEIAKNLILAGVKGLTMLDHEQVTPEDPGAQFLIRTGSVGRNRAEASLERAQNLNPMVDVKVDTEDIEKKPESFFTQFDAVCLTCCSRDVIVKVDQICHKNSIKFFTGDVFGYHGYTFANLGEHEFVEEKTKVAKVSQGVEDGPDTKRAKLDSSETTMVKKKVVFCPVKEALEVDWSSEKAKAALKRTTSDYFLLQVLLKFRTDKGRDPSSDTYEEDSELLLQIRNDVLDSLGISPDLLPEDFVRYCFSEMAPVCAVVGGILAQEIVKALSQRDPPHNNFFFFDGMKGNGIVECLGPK
Sequence (Q9UBT2 whole entry): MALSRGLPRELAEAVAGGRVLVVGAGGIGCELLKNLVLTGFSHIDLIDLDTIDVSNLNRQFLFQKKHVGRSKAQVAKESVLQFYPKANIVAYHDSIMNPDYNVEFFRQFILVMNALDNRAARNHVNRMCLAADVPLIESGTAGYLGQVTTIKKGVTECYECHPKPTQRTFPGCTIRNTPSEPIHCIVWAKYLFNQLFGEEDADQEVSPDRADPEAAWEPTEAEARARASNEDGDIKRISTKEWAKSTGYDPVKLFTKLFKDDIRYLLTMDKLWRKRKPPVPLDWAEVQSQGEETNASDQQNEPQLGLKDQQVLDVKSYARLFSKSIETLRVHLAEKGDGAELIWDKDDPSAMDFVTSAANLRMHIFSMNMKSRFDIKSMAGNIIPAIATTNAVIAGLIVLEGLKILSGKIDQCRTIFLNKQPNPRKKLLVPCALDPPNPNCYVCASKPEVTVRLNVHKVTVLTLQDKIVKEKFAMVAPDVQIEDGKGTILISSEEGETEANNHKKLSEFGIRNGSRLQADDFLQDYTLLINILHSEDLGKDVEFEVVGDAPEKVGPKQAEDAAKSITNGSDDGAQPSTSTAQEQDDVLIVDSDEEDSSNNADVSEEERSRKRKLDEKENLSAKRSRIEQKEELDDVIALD
Active and inactive are the calls of the source.

Below, each entry is followed by its recorded IC50 result.
| Mol Smiles | Measurement Target | Result |
| --- | --- | --- |
| CC1=C(C#N)C(=O)NC(=O)/C1=C/c1ccc(-c2ccc(S(N)(=O)=O)cc2)o1 | SUMO-activating enzyme (Homo sapiens, UniProt Q9UBT2) | 6.48 µM (active) |
| CCc1ccc(/C=C2/SC(=S)N(CCC(=O)Nc3ccc(C(=O)O)cc3)C2=O)cc1 | SUMO-activating enzyme (Homo sapiens, UniProt Q9UBT2) | 4.15 µM (active) |
| CN(C)S(=O)(=O)c1cccc(-c2nn(-c3ccccc3)cc2/C=C2\SC(=S)NC2=O)c1 | SUMO-activating enzyme (Homo sapiens, UniProt Q9UBT2) | 7.59 µM (active) |

Okay, next one:
Prompt: GET /values?readout=IC50&item= CN(c1ccccc1)c1ccc(/C=C(\CCC(=O)O)c2nc3ccccc3s2)cc1[N+](=O)[O-]
Completion: 1.65 µM (active)

---

Reported IC50 by item:
target: SUMO-activating enzyme (Homo sapiens, UniProt Q9UBT2); test: inhibitors of in vitro SUMOylation cascade, primary screen, biochemical, HTRF, uHTS (AID 2006); format: protein-complex assay
Activity calls are given as the source filed them.

Here's what some known entries look like.
| Mol Smiles | IC50 |
| --- | --- |
| CCc1ccc(/C=C2/SC(=S)N(CCC(=O)Nc3ccc(C(=O)O)cc3)C2=O)cc1 | 14.1 µM (active) |
| CN(C)S(=O)(=O)c1cccc(-c2nn(-c3ccccc3)cc2/C=C2\SC(=S)NC2=O)c1 | 10.6 µM (active) |
| CN(c1ccccc1)c1ccc(/C=C(\CCC(=O)O)c2nc3ccccc3s2)cc1[N+](=O)[O-] | 16.8 µM (active) |

From here, focus on the item given below.
Prompt: Returns the measured IC50 for the input compound. Input: CC1=C(C#N)C(=O)NC(=O)/C1=C/c1ccc(-c2ccc(S(N)(=O)=O)cc2)o1
Completion: 25.7 µM (active)

---

compounds and their reported IC50
biological target: Genome polyprotein (dengue virus type 2, UniProt P29990); test: Dengue-2 NS5 methyltransferase inhibitors, primary screen, biochemical, confirmation dose response (AID 588689); format: functional
Active and inactive are the calls of the source.

The cases that follow already have their IC50 on record.
| Mol Smiles | IC50 |
| --- | --- |
| O=C(CCN1C(=O)S/C(=C\c2ccccc2)C1=O)Nc1ccc(S(=O)(=O)Nc2nccs2)cc1 | > 100 µM (active) |
| CC1(C)CC(=O)C(=Cc2cn(CCC#N)nc2-c2ccc(F)cc2)C(=O)C1 | 52.8 µM (active) |
| COc1cc(C(c2c(C(=O)O)[nH]c3ccccc23)c2c(C(=O)O)[nH]c3ccccc23)ccc1OCc1ccccc1 | 16 µM (active) |

Prompt: Find the recorded IC50 belonging to O=S(=O)(Nc1ccc(O)c2ccccc12)c1cccs1 and report it.
Completion: 62.6 µM (active)

Prompt: Field entry: O=C(O)CN1C(=O)/C(=C\c2cccc(OCc3ccccc3F)c2)SC1=S
Completion: 38.2 µM (active)

---

target: Corticotropin-releasing factor receptor 2/Corticotropin-releasing factor-binding protein (Homo sapiens, UniProt P24387+Q13324); experiment: activators of CRF receptor 2 with binding protein – uHTS hits, confirmation (AID 602473); format: functional; details: read-out: EC50_Mean
Sequence (Q13324 whole entry): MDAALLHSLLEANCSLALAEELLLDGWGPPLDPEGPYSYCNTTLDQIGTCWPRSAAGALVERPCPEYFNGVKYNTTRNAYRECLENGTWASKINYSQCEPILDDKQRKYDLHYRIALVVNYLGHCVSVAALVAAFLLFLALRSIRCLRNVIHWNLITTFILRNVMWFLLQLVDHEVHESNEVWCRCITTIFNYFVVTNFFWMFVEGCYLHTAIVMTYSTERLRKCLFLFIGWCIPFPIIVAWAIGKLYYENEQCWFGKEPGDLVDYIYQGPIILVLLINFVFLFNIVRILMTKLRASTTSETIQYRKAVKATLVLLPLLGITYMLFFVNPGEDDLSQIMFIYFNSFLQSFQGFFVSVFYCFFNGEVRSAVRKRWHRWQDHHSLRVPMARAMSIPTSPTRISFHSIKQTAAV
Sequence (P24387 whole entry): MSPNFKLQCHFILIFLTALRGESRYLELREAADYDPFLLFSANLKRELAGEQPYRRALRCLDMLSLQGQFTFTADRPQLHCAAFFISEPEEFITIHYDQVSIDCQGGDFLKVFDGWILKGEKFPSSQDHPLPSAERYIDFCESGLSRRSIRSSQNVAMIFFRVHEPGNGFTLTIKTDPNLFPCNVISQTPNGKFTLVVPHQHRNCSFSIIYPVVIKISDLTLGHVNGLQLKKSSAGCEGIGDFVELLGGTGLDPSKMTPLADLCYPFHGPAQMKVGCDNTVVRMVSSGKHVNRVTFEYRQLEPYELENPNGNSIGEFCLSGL
Calls of active or inactive are those of the source.
Answer with one of the outcomes given here: true for active, false for inactive

| Molecule | Class |
| --- | --- |
| CCCCn1c(N)c(N(CCC(C)C)C(=O)Cc2ccc(S(=O)(=O)N3CCOCC3)s2)c(=O)[nH]c1=O | false |
| COc1ccccc1NC(=O)c1sc2nc(Cc3ccccc3)cc(C(F)(F)F)c2c1N | true |
| Oc1nc(C(Cl)Cl)nc2sc3c(c12)CCN(Cc1ccccc1)C3 | false |
| CCOc1ccccc1/N=C1\SC(CC(=O)Nc2ccc(OC)cc2OC)C(=O)N1CCC1=CCCCC1 (centres undefined) | false |
| Cc1ccc(C(=O)N/C(=C\c2cn(C)c3ccccc23)C(=O)NCCCN2CCOCC2)cc1 | false |
| O=C(Cc1cccs1)Nc1nc2c(ccc3ccccc32)s1 | false |
| Nc1c(C(=O)c2ccc(Cl)cc2)sc2nsc(SCCN3CCOCC3)c12 | true |
| C[C@H]1CN([C@@H](C)CO)C(=O)Cc2cc(NS(C)(=O)=O)ccc2O[C@@H]1CN(C)Cc1ccc(Cl)c(Cl)c1 | true |

Consider the record given below.
Prompt: State the result this test recorded for CCCN(CCC)S(=O)(=O)c1ccc(C(=O)OCCN2C(=O)c3cccc4c(N5CCOCC5)ccc(c34)C2=O)cc1 .
Completion: true

---

assay: Luminescence Cell-Based Dose Retest to Confirm Inhibitors of Cancer Stem Cells. [Related pubchem assays (depositor defined):AID2717, AID2721]; format: functional; settings: Homo sapiens
The source made the active and inactive calls.
Quantity Name: AC50

| Mol Smiles | Quantity Name | Result |
| --- | --- | --- |
| Cc1ccc(NC(=O)c2ccc(Cl)c(N3C(=O)C=CC3=O)c2)cc1 | AC50 | 4.21 µM (active) |
| Cc1ccc(NN/C=C2\C(=O)NC(=O)N(c3ccccc3)C2=O)cc1 | AC50 | 2.35 µM (active) |
| CCCCCOc1ccc(OC(=O)c2ccncc2)cc1 | AC50 | 7.57 µM (active) |

Turning now to a further molecule:
Prompt: What value of AC50 has been reported for the following molecule? O=C(Nc1cccc(-c2csc(Nc3ccccc3)n2)c1)c1ccccc1
Completion: 2.96 µM (active)

---

target: Trace amine-associated receptor 1 (Homo sapiens); experiment: Fluorescence-based cell-based high throughput dose response assay to identify agonists of the human trace amine associated receptor 1 (TAAR1).; assay type: functional
Sequence (Q96RJ0 whole entry): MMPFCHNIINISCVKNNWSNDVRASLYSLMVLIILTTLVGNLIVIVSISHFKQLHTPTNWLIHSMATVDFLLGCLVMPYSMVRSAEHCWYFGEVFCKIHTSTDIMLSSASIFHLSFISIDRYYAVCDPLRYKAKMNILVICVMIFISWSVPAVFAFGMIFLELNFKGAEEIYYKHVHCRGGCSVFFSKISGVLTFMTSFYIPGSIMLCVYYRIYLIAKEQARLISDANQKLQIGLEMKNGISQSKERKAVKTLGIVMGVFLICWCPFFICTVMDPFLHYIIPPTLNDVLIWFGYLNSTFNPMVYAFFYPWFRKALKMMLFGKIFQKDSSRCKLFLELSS
The source made the active and inactive calls.
Assign a class; possible classes are active, inactive

Please review the following examples before continuing.
| Molecule | Class |
| --- | --- |
| O=C(Nc1ccccc1)Nc1ccncc1 | active |
| Cc1cc(N/N=C/c2ccccc2O)nc(N2CCOCC2)n1 | inactive |
| NC(Cc1ccccc1)c1csc(Nc2ccc(C(=O)NCCO)cc2)n1 (centres undefined) | active |

We now examine a further molecule.
Prompt: Hi, do you know how CCCCCCCCN1C(=O)[C@@H](CC(=O)NCCc2ccccc2OC)C[C@@]2(C(=O)OC)C1=C[C@H](C1CCCC1)O[C@@H]2C came out in this test?
Completion: active

---

Quick reference for IC50 among some compounds
target: Glyceraldehyde-3-phosphate dehydrogenase (Homo sapiens)
Sequence (P04406 whole entry): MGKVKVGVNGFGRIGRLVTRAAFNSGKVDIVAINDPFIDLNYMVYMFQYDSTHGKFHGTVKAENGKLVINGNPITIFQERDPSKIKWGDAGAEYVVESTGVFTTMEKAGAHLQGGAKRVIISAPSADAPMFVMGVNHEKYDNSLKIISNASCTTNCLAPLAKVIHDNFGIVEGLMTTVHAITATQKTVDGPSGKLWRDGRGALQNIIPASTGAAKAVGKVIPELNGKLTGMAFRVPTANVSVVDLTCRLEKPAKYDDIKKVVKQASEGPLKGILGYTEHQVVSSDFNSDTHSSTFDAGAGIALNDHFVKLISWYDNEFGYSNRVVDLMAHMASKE

| Compound | IC50 |
| --- | --- |
| O=C1C(Cl)=C(N2CCOCC2)C(=O)N1c1cc(Cl)cc(Cl)c1 | > 10 µM (inconclusive) |
| O=C1C(Cl)=C(Cl)C(=O)N1c1ccc(C(F)(F)F)cc1 | > 100 µM (not active) |
| O=C1C2CC=CCC2C(=O)N1c1nc(-c2ccco2)n[nH]1 (centres undefined) | > 100 µM (not active) |

Now consider the entry below.
Prompt: What is its IC50 for Glyceraldehyde-3-phosphate dehydrogenase (Homo sapiens)? Entry: COC(=O)CCn1nnc(-c2ccc(C(C)C)cc2)n1
Completion: > 100 µM (not active)

---

test: growth suppression of PTEN-null colon cells, dose response, cell-based, HCT116 PTEN knockout (AID 1047); assay type: functional;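 further: HCT116 colon tumor cells with PTEN knocked out; cells exposed to compound for 60 hours before readout; potency for loss of cell viability measured by luminescence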
Active and inactive are the calls of the source.
Quantity Name: EC50

These solved cases illustrate the format of a correct answer.
| Compound | Result |
| --- | --- |
| Cc1cccc(NC(=O)CSc2cc(C(=O)c3nccn3C)c3ccccc3n2)c1 | 453 µM (active) |
| Cc1cccc(N2CCN(C(=O)Cn3sc4nc(C)cc(C)c4c3=O)CC2C)c1 (stereo not given) | 17 µM (active) |
| Cc1ccc(-c2nc(NC(=O)c3nn(C)cc3[N+](=O)[O-])sc2C)cc1C | 0.224 µM (active) |
| N#CC(c1ccc(Cl)cc1)c1ccc2c(C(F)(F)F)cc(C(F)(F)F)nc2n1 (stereo not given) | 0.349 µM (active) |

# next compound below
Prompt: Need EC50 of COc1ccc(NC(=O)NCCCN2CCN(c3cc(C)ccc3C)CC2)cc1 , thanks.
Completion: 10.2 µM (active)

---

Below, each entry is listed alongside its reported IC50.
biological target: Carboxy-terminal domain RNA polymerase II polypeptide A small phosphatase 1 (Homo sapiens, UniProt Q9GZU7); test: inhibitors of CTDSP1, concentration-response testing, biochemical assay, absorbance-based, actives from ultra-high-throughput screening (AID 540297); type: functional
Sequence (Q9GZU7 whole entry, the tested form may be a part): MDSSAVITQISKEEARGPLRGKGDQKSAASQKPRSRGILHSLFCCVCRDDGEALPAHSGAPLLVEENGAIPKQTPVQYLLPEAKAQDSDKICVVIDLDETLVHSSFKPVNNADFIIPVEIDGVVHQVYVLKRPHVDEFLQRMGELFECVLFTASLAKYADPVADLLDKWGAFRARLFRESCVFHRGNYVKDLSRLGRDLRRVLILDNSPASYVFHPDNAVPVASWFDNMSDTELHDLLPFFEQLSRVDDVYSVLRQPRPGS
The source made the active and inactive calls.

A selection of reference data follows.
| Compound | IC50 |
| --- | --- |
| COc1ccc2c(c1)c(=O)oc1c(C)c(OCc3ccc(C(=O)O)cc3)ccc12 | 2.01 µM (active) |
| O=CC(O)C1OC(=O)C(O)C1O (stereo not drawn) | 4.05 µM (active) |
| NC(=O)c1cc2ccccc2o/c1=N\NC(=O)c1ccccc1O | 7.89 µM (active) |
| CCc1ccccc1NC(=O)CNC(=O)CCc1nc2sc3c(c2c(=O)[nH]1)CCCC3 | 5.82 µM (active) |
| CCOc1ccccc1C(O)C1=CC(=O)c2ccccc2C1=O (stereo not drawn) | 4.16 µM (active) |
| O=C(COC(=O)c1ccccc1Nc1cccc(C(F)(F)F)c1)NCc1ccco1 | 6.38 µM (active) |
| CS(=O)(=O)c1ccc(-c2sc3cc4c(cc3c2C(=O)NN2CCOCC2)OCO4)cc1 | 14.6 µM (active) |

Prompt: Requested read-out: IC50. Entry: O=C(NC(Cc1ccccc1)c1nc2ccccc2[nH]1)C1CC(=O)N(c2ccc3c(c2)OCCO3)C1 (stereo not drawn)
Completion: 41.4 µM (active)
